- system under test: T1, AAV5 (adeno-associated virus 5)
- T1 construct: also called adeno-associated virus serotype 5
- method summary: SPR, AAV amine-coupled to CM5 chip;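 also: nanobodies flowed as analyte at seven concentrations spanning 1–100 nM over immobilized AAV (500–800 RU), kinetic constants derived by fitting the binding curves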
Recorded koff by entry
The reply should be a number in s⁻¹, with the unit left off.

Examples with answers:
- binder: "A4-088 (VHH) VHH: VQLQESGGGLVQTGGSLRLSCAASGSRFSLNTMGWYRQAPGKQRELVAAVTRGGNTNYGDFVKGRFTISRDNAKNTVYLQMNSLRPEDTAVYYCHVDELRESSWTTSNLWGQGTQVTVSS"
  koff (s⁻¹): 0.00146
- binder: "A4-051 (VHH) VHH: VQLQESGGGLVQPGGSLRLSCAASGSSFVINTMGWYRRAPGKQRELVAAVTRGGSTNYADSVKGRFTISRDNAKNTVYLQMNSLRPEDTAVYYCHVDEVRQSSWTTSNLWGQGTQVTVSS"
  koff (s⁻¹): 0.00507
- binder: "A4-077 (VHH) VHH: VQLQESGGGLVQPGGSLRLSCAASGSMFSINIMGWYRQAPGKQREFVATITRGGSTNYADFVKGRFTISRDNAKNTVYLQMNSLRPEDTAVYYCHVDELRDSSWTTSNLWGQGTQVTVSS"
  koff (s⁻¹): 0.00019

// query Please report the measured koff for A4-055 (VHH) VHH: VQLQESGGGLVQPGGSLRLSCAASGSIFSINTMGWYRQAPGKQRELVAAVTRGGSTNYADSVKGRFTISRDNAKNTVYLQMNSLRPEDTAVYYCHVDEVRQSSWTTSNLWGQGTQVTVSS
// result 0.00022

Where do the numbers come from? From patent US20260193326A1.
